Target: ARTD4/PARP4 (Homo sapiens)
Sequence (Q9UKK3 369-573 limits assumed): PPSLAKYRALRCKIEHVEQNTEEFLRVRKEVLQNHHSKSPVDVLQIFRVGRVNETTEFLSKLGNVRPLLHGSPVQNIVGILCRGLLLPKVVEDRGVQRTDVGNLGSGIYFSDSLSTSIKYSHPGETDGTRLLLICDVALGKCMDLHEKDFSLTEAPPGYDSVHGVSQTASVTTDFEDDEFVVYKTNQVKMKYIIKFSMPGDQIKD
Test: ARTD profiling, ARTD4
recorded.metric: IC50 (µM)

CN(CCO)c1ccc(-c2nc3ccccc3c(=O)[nH]2)cc1 | 2

1 = CCN(CC)c1ccc(-c2nc3ccccc3c(=O)[nH]2)cc1
2 = O=c1[nH]c(-c2ccc(N3CCCCC3)cc2)nc2ccccc12
## Task Hello, I am sorting some records. Could you say if 1 or 2 has the smaller IC50 value? Kindly give the label for the entry you pick.
## Result 1
(1: 5.5 µM, 2: 12 µM)

----------
Biological target: UniProtKB Q9H2K2
Sequence (Q9H2K2 959-1164): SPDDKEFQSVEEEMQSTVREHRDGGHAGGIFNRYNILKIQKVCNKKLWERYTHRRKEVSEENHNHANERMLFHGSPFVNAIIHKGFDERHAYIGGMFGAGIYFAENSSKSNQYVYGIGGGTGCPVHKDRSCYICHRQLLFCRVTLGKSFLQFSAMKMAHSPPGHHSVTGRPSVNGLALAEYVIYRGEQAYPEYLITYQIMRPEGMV
Experiment: NAD+ quantification activity assay, TNKS2
Type: biochemical
Settings: TNKS2 IC50, as quoted in text
recorded.metric: IC50 (µM)

I = O=c1[nH]c(-c2ccccn2)nc2ccccc12
II = Nc1ccc(-c2nc3cc(Cl)ccc3c(=O)[nH]2)cc1
## Task I need your help: which of the pair I , II has higher IC50? Write the label of whichever entry you select.
## Result I

Source: paper PMC5785997
